# Test system: UACC-62
# assay: NCI tumour cell line growth inhibition, 48 h
The source made the active and inactive calls. Cut-off read from the data, not from the text of the source: active = GI50 up to about 1.1 µM and inactive = higher.
Please respond with reported GI50 for every item in the list.

What the record says about O=C1/C(=C/c2ccc([N+](=O)[O-])cc2)C(=O)N(c2ccccc2)C1c1ccccc1 (centres undefined) : GI50 is > 10 µM (inactive)

# GI50 (compound: CCOC(=O)C(/C(=N/NC(=O)OC)C(=O)Nc1ccc(C(C)=O)cc1)c1cnc2ccccc2n1 (centres undefined) ) is > 100 µM (inactive)

The compound identified as N#Cc1ccccc1NC(=O)/C(=N\NC(=O)c1ccncc1)C(c1cnc2ccc([N+](=O)[O-])cc2n1)[N+](=O)[O-] (centres undefined) registered its GI50 at > 100 µM (inactive)

Notebook: COC(=O)/C(=N\NC(N)=S)C(C(=O)OC)C(=O)C(=O)Nc1ccc(C)cc1 (centres undefined) , GI50 read as > 100 µM (inactive)
